Several publications report IC50 on human LCE (Homo sapiens); those values are gathered here.
Sequence (Q9H5J4 whole entry): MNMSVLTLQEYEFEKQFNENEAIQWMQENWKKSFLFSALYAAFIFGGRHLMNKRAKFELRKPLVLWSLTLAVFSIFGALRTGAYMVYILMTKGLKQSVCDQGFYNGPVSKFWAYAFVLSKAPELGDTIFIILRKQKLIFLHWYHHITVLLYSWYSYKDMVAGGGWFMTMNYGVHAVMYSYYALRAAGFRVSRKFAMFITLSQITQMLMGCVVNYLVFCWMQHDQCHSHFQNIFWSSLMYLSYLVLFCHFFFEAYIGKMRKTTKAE
Respond with the figure and its unit, in that order.

> print(dat)
                                   compound            assayed.target  experimental.result
1  CC(C)Oc1ccc(C(=O)NCC2(c3ccccc3)CCCN(S(=O)(=O)c3cn(C)cn3)C2)cc1 (centres unmarked)  human LCE (Homo sapiens)              17.4 nM
2  CC(C)Oc1ccc(NC(=O)c2cccc(S(=O)(=O)N3CCc4o[nH]c(=O)c4C3)c2)cc1  human LCE (Homo sapiens)              5100 nM
3  CC(C)Oc1ccc(C(=O)NCc2cccc(S(=O)(=O)N3CCCCC3)c2)cc1  human LCE (Homo sapiens)               230 nM
4  COc1cccnc1NC(=O)c1cccc(S(=O)(=O)N2CC3CCC2CC3)c1  human LCE (Homo sapiens)               330 nM
5  CC(C)Oc1ccc(NC(=O)[C@@H]2C[C@@H]3CC[C@H]2N(S(=O)(=O)c2ccccn2)C3)nc1 (relative stereo)  human LCE (Homo sapiens)                19 nM
6  O=C1Nc2ccc(-c3cc[nH]n3)cc2C(CNS(=O)(=O)c2ccc(F)cc2)(C(F)(F)F)O1 (single isomer, unassigned)  human LCE (Homo sapiens)                17 nM
7  COc1cccnc1NC(=O)c1cccc(S(=O)(=O)N2CCCC(C(N)=O)C2)c1 (centres unmarked)  human LCE (Homo sapiens)               830 nM
8  CC(C)Oc1ccc(NC(=O)c2cccc(S(=O)(=O)N3CCC[C@H](C(N)=O)C3)c2)nc1  human LCE (Homo sapiens)               110 nM

[Q] Entry O=C(Nc1ccc(Oc2ccccc2)nc1)c1cccc(S(=O)(=O)N2CCCCC2)c1 : reported IC50 = ?
[A] 910 nM

[Q] Entry CCOc1cccnc1NC(=O)c1cccc(S(=O)(=O)N2CCCC2)c1 : reported IC50 = ?
[A] 400 nM

[Q] Entry CCCCOc1cc(NC(=O)c2cccc(S(=O)(=O)c3ccccn3)c2)[nH]n1 : reported IC50 = ?
[A] 6 nM

[Q] Entry CCC(C)Oc1ccc(NC(=O)c2cccc(S(=O)(=O)c3ccccn3)c2)c(F)c1 (centres unmarked) : reported IC50 = ?
[A] 190 nM

[Q] Entry COc1cccnc1NC(=O)c1cccc(S(=O)(=O)N2CCCC(C(=O)NCc3ccccc3)C2)c1 (centres unmarked) : reported IC50 = ?
[A] 54 nM

[Q] Entry CC(C)c1ccc(NC(=O)c2cccc(S(=O)(=O)N3CCOCC3)c2)cc1 : reported IC50 = ?
[A] 180 nM

[Q] Entry CC(C)Oc1ccc(NC(=O)c2cccc(S(=O)(=O)N3C[C@@H]4C[C@H]3CO4)c2)cc1 : reported IC50 = ?
[A] 760 nM

[Q] Entry CSc1ccc(NC(=O)c2cccc(S(=O)(=O)N3CCCCC3)c2)cc1 : reported IC50 = ?
[A] 2200 nM

[Q] Entry O=C(Nc1ccccc1Cl)c1cccc(S(=O)(=O)N2CCCCC2)c1 : reported IC50 = ?
[A] 1500 nM
